Tested on: Staphylococcus aureus
Assay: Compound was tested in vitro for its minimum inhibitory concentration by serial 2-fold agar dilution Muller Hinton method against Staphylococcus aureus 285
Type: functional
Parameter: MIC (µg/mL)
Number in µg/mL, nothing else.

Take a look at these entries with their results.
{"Molecule": "C=CCO/N=C(\\C(=O)NC1C(=O)N2C(C(=O)[O-])=C(CN(C)c3scc(C)[n+]3C)CSC12)c1csc(N)n1 (stereo not given)", "MIC, µg/mL": 0.781}
{"Molecule": "CCO/N=C(\\C(=O)NC1C(=O)N2C(C(=O)[O-])=C(CN(C)c3sc4c([n+]3C)CCCC4)CSC12)c1csc(N)n1 (stereo not given)", "MIC, µg/mL": 0.781}
{"Molecule": "CO/N=C(\\C(=O)N[C@@H]1C(=O)N2C(C(=O)[O-])=C(C[n+]3cccc4c3CCC4)CS[C@H]12)c1csc(N)n1", "MIC, µg/mL": 0.781}
{"Molecule": "CO/N=C(\\C(=O)NC1C(=O)N2C(C(=O)[O-])=C(CN(C)c3sc(C(N)=O)c(C)[n+]3C)CSC12)c1csc(N)n1 (stereo not given)", "MIC, µg/mL": 0.781}
{"Molecule": "CCOC(=O)c1sc(N(C)CC2=C(C(=O)[O-])N3C(=O)C(NC(=O)/C(=N\\OC)c4csc(N)n4)C3SC2)[n+](C)c1C (stereo not given)", "MIC, µg/mL": 1.56}
{"Molecule": "CCO/N=C(\\C(=O)NC1C(=O)N2C(C(=O)[O-])=C(CN(C)c3sc(C(=O)OCC)c(C)[n+]3C)CSC12)c1csc(N)n1 (stereo not given)", "MIC, µg/mL": 1.56}

MIC in this record for `CO/N=C(\C(=O)N[C@@H]1C(=O)N2C(C(=O)O)=C(COC(C)=O)CS[C@H]12)c1csc(N)n1` : 3.12

MIC in this record for CO/N=C(\C(=O)NC1C(=O)N2C(C(=O)[O-])=C(CN(C)c3scc(C)[n+]3C)CSC12)c1csc(N)n1 (stereo not given) : 1.56

MIC in this record for CCO/N=C(\C(=O)NC1C(=O)N2C(C(=O)[O-])=C(CN(C)c3scc(C)[n+]3C)CSC12)c1csc(N)n1 (stereo not given) : 1.56

MIC in this record for C=CCO/N=C(\C(=O)NC1C(=O)N2C(C(=O)[O-])=C(CN(C)c3sc4c([n+]3C)CCCC4)CSC12)c1csc(N)n1 (stereo not given) : 0.781
